molecular target: CFTR (F508del/MF-HBE cells) (Homo sapiens, UniProt P13569, DEL508-508); construct: human bronchial epithelial (HBE) cells derived from CF subjects heterozygous for F508del and a minimal function CFTR mutation; endogenous in cells; assay: Ussing chamber assay of CFTR-mediated short-circuit currents (identification of potentiator compounds); conditions: CFTR-mediated ISC in F508del/MF-HBE cells; incubated 18-24 hours at 37° C. with 10 μM (14S)-8-[3-(2-{dispiro[2.0.2.1]heptan-7-yl}ethoxy)-1H-pyrazol-1-yl]-...-2,2,4-trione, 20% human serum
Sequence (P13569 with tags, fused parts or gaps DEL508-508): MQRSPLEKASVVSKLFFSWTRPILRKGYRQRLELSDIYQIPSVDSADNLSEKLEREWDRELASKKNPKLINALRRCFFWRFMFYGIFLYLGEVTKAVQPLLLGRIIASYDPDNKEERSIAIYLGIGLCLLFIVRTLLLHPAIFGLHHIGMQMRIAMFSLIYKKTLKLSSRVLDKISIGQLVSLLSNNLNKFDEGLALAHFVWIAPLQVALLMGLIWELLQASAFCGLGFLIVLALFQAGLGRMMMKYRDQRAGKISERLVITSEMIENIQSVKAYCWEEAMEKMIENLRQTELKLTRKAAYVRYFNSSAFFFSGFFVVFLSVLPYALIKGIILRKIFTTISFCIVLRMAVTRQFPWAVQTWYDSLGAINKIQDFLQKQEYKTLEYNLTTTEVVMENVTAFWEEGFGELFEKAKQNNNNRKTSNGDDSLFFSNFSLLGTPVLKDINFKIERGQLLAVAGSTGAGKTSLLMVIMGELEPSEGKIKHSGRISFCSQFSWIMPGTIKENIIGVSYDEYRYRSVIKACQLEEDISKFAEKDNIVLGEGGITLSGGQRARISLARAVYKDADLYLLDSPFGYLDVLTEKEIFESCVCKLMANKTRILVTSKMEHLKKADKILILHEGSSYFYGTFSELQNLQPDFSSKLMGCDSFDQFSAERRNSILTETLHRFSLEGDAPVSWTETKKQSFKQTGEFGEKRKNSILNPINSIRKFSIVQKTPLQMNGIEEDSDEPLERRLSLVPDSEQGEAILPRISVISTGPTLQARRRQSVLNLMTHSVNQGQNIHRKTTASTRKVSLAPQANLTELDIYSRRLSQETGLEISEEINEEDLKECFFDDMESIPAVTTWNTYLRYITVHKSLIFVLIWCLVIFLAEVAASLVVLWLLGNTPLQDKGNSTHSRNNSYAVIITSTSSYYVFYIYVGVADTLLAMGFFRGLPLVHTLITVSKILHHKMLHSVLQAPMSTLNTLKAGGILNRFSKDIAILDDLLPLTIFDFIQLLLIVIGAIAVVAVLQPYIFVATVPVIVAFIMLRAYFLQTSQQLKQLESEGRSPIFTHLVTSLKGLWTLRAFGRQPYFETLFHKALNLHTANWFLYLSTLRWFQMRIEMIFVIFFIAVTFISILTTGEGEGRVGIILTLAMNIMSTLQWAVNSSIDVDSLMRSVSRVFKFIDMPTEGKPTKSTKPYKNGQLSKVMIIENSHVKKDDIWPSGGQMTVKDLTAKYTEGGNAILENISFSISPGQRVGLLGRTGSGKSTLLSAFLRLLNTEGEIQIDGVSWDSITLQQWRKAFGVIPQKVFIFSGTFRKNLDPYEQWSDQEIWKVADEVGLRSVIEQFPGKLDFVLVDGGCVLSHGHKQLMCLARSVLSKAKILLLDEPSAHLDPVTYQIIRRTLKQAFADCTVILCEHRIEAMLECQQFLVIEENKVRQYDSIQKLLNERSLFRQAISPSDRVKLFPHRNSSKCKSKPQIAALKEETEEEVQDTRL
Here the recorded EC50 is given for each entry.

Nc1cc(Cc2ccccc2)c2nc1-c1nnc(o1)C(O)(C(F)(F)F)CCCCC[C@@H]1CCCN21 (mixture of isomers)
< 500 nM
Nc1cc(C(F)(F)F)c2nc1-c1nnc(o1)[C@@](O)(C(F)(F)F)CCCCCC1(CCC1)N2
< 500 nM
Nc1cc(C(F)(F)F)c2nc1-c1nnc(o1)[C@@](O)(C(F)(F)F)CCCCCC(c1ncccn1)N2 (single isomer, unassigned)
< 500 nM

The measured EC50 associated with CCOC(=O)C1CCCCCC(O)(C(F)(F)F)C2=NN=C(O2)c2nc(c(C(F)(F)F)cc2N)N1 (single isomer, unassigned) [Compound 97] reads > 1000 nM

EC50 recorded for this molecule, CC1(C)Nc2nc(c(N)cc2C(F)(F)F)C2=NN=C(O2)[C@@](O)(C(F)(F)F)CCCCC1O (single isomer, unassigned) [Compound 203] , is < 500 nM

---

The entries below are paired with their reported EC50.
target: CFTR (F508del/MF-HBE cells) (Homo sapiens, UniProt P13569, DEL508-508); construct: human bronchial epithelial (HBE) cells derived from CF subjects heterozygous for F508del and a minimal function CFTR mutation; endogenous in cells; assay: Ussing chamber assay of CFTR-mediated short-circuit currents (identification of potentiator compounds); conditions: CFTR-mediated ISC in F508del/MF-HBE cells; incubated 18-24 hours at 37° C. with 10 μM (14S)-8-[3-(2-{dispiro[2.0.2.1]heptan-7-yl}ethoxy)-1H-pyrazol-1-yl]-...-2,2,4-trione, 20% human serum

Some compounds with recorded EC50:
COc1ccc2cc1C(O)(C(F)(F)F)C1=NN=C(O1)c1nc(c(C(F)(F)F)cc1N)N1CCC[C@H]1CCC2 (single isomer, unassigned) [Compound 93]
< 500 nM
Nc1cc(C(F)(F)F)c2nc1-c1nnc(o1)C(O)(C(F)(F)F)CCCCC1CCN2C1 (stereo not drawn) [Compound 8]
< 500 nM
CC1(CO)CCCCC[C@](O)(C(F)(F)F)C2=NN=C(O2)c2nc(c(C(F)(F)F)cc2N)N1 (single isomer, unassigned) [Compound 174]
< 500 nM

The recorded EC50 for Nc1cc(C(F)(F)F)c2nc1-c1nnc(o1)[C@@](O)(C(F)(F)F)c1cc(ccc1F)C=CC[C@@H]1CCCN21 (mixture of isomers) is < 500 nM

Value of EC50 reported for the compound CC1CCCCCC(O)(C(F)(F)F)C2=NN=C(O2)c2nc(c(C(F)(F)F)cc2N)N1 (single isomer, unassigned) [Compound 65] is < 500 nM

Lab note: measured EC50 of Nc1cc(C(F)(F)F)c2nc1-c1nnc(o1)C(O)(C(F)(F)F)c1cc(ccn1)CCC[C@@H]1CCCN21 (single isomer, unassigned) [Compound 86] was > 1000 nM

Data origin, for the record: patent US12324802B2
